Recorded values, source paper PMC7819943.

Could you please report measured binding signal for the items listed next?
Target: OsWOX13 (Oryza sativa, UniProt Q5QMM3 1-267)
Sequence: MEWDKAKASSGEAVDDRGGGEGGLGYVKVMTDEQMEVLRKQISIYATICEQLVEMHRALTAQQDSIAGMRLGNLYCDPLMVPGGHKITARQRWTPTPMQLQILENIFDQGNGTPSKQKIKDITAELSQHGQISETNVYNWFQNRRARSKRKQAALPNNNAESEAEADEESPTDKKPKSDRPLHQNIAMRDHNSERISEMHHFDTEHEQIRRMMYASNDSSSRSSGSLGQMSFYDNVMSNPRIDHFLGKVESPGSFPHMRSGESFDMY
Assay: protein-binding microarray (RPBM); PBS, 2% BSA, 51.3 ng/ul salmon testes DNA, 50 uM zinc acetate, 200 nM TF, 25 C, 1 h; high values mean tight binding
Details: protein: recombinant; tags: N-terminal polyhistidine and DsRed monomer fusion (pET32a); label: CyDye5-dUTP incorporated in the synthesized complementary strand; 3' TTTTT single-stranded linker to array surface; dsDNA, one strand shown
Whole data set: some 35,000 sequences, median “fluorescence intensity (a.u.)” near 10,000, cut for the highest 2% near 52,000. This is one part of a sample in which the highest values are shown more often than they occur.

Solved entries:
• AATTAACAATTTACCAAATTATTAGTTATCAACACTAATTCGGAGTCACCTAGTGCAG = 11300 fluorescence intensity (a.u.)
• TACGCATTGATTAGTTTTGTCAGGTTAGTATAGAATTTAACGGAGTCACCTAGTGCAG = 14000 fluorescence intensity (a.u.)
• ATTGATAAGCCTAATTTAGACATCAAACCAAACCAGCCCTCGGAGTCACCTAGTGCAG = 14300 fluorescence intensity (a.u.)
• ATATGATTAAACTCAAGTATAGTTGAGGGACGTAAATTGGCGGAGTCACCTAGTGCAG = 19700 fluorescence intensity (a.u.)
• TTAGATAAAATTAATTTGTCTTGCTTTTGTAGGCTGCAGACGGAGTCACCTAGTGCAG = 27700 fluorescence intensity (a.u.)
• TATTAAATTGACTATAGATGATTTGGAGCTAGTAATTGGCCGGAGTCACCTAGTGCAG = 36800 fluorescence intensity (a.u.)

Give binding signal for all sequences that follow.
1. TGATTAACAGCAACCATAGACGGGACAGGCCAGCCCACCACGGAGTCACCTAGTGCAG
2. AGAATAATTATTTAAGTTAAGGTGTGTCACACCCCAATCCCGGAGTCACCTAGTGCAG
3. GTAATTAATTACTTGATTAACAATTAAATAATAATAGTTACGGAGTCACCTAGTGCAG
4. TACTAAATTGACTATGGACGATTTAGAGCTCGTAGTTGGCCGGAGTCACCTAGTGCAG
5. ACGTTGATTAGTTAGTACTAACCTACTCCTACGTGTTAACCGGAGTCACCTAGTGCAG

Result:
1. 3260 fluorescence intensity (a.u.)
2. 25100 fluorescence intensity (a.u.)
3. 33200 fluorescence intensity (a.u.)
4. 53600 fluorescence intensity (a.u.)
5. 30400 fluorescence intensity (a.u.)

Batch of 2 sequences: report binding signal for each.
1. ATAAAATTTAATATTAAATATGCATTTGAACAGCTATAAACGGAGTCACCTAGTGCAG
2. ATCGGCATGTTCACCAGCTCTGATTGGTAGTACGATTTTACGGAGTCACCTAGTGCAG

Result:
1. 6360 fluorescence intensity (a.u.)
2. 5140 fluorescence intensity (a.u.)

* * *

Would you kindly list binding signal for each of these sequences?
Biological target: OsWOX13 (Oryza sativa, UniProt Q5QMM3 1-267)
Sequence: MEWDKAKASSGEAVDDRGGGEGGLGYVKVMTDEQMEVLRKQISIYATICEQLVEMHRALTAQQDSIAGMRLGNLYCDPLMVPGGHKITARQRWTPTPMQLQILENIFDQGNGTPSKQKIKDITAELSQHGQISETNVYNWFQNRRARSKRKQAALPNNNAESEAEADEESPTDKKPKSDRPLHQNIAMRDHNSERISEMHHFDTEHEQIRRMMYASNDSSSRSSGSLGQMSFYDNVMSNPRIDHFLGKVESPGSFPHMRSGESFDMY
Assay: protein-binding microarray (RPBM); PBS, 2% BSA, 51.3 ng/ul salmon testes DNA, 50 uM zinc acetate, 200 nM TF, 25 C, 1 h; high values mean tight binding
Conditions: protein: recombinant; tags: N-terminal polyhistidine and DsRed monomer fusion (pET32a); label: CyDye5-dUTP incorporated in the synthesized complementary strand; 3' TTTTT single-stranded linker to array surface; dsDNA, one strand shown
In all, about 35,000 sequences were measured (“fluorescence intensity (a.u.)”: median about 10,000, highest 2% from about 52,000 on). Only a selection was taken, and the highest values are over-represented in it overall.

- GCGCTGATACTTGTAATCAATCAACTCATCAGCATGGTCTCGGAGTCACCTAGTGCAG: 26100 fluorescence intensity (a.u.)

Items follow; give binding signal for each.
1. GGAAATTTAACTATTTGCCACTTTTAGGTTTATCAATTATCGGAGTCACCTAGTGCAG
2. AACAAATAAATTACTATTAGAGTAGGATGTTCGGCAAAGTCGGAGTCACCTAGTGCAG
3. TTTGATTGATGGCCATAAGTTGCCACACTTTGCCACACTTCGGAGTCACCTAGTGCAG
4. ACCCAGTAATTTCCAAATCTAAAGATAGGAGATTTTAGGACGGAGTCACCTAGTGCAG

Result:
1. 4880 fluorescence intensity (a.u.)
2. 7390 fluorescence intensity (a.u.)
3. 53800 fluorescence intensity (a.u.)
4. 6740 fluorescence intensity (a.u.)

* * *

Target: OsWOX13 (Oryza sativa, UniProt Q5QMM3 1-267)
Sequence: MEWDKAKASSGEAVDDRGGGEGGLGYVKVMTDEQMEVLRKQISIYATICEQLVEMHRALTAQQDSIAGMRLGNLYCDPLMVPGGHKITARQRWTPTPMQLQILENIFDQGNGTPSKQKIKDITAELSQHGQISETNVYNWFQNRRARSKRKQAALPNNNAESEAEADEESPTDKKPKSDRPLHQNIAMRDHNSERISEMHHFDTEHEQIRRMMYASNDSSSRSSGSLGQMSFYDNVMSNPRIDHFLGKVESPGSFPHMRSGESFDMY
Assay: protein-binding microarray (RPBM); PBS, 2% BSA, 51.3 ng/ul salmon testes DNA, 50 uM zinc acetate, 200 nM TF, 25 C, 1 h; high values mean tight binding
Details: protein: recombinant; tags: N-terminal polyhistidine and DsRed monomer fusion (pET32a); label: CyDye5-dUTP incorporated in the synthesized complementary strand; 3' TTTTT single-stranded linker to array surface; dsDNA, one strand shown
Over roughly 35,000 sequences, “fluorescence intensity (a.u.)” has its median near 10,000; the highest 2% begin near 52,000. What follows is part of a selection rich in the highest values, with near analogues and random picks from the rest.
outcomeMeasure: binding signal

• TATCGATCGATTGATTGCTATAGCTAGGTCAAATCGATCGCGGAGTCACCTAGTGCAG = 28100 fluorescence intensity (a.u.)
• AATCAAATCATCTCATCAAAGTCCAATCCCGCTAGCTCCACGGAGTCACCTAGTGCAG = 9000 fluorescence intensity (a.u.)
• AAACAAACTAACATGGATTGATTTTCTATAGGATGGAGGGCGGAGTCACCTAGTGCAG = 25200 fluorescence intensity (a.u.)

Need binding signal for each of these sequences.
1. GAATAGACCGAAATTAATTAAGGCAGTAATCACCCAGATGCGGAGTCACCTAGTGCAG
2. TACAAATTGATTGGCTATAGGTCAAATAGTGGATCCTAGACGGAGTCACCTAGTGCAG
3. AAGATGAGGTGATAGACTGACTAGCACTGAGCTTGCCCGGCGGAGTCACCTAGTGCAG
4. GAATTAAATGATGTGTGAATAATGGATGGCTAGGATGCAACGGAGTCACCTAGTGCAG
5. TTGATTAATTTGACGTCGATGCTACTAATAGTTAACCTTCCGGAGTCACCTAGTGCAG
6. ATATATATATATATATATATATATATATATATAAACCCAACGGAGTCACCTAGTGCAG
7. AACTAACAGATTATTCTATGTCGGTTTATTATAATCCAACCGGAGTCACCTAGTGCAG

Result:
1. 16100 fluorescence intensity (a.u.)
2. 56000 fluorescence intensity (a.u.)
3. 14400 fluorescence intensity (a.u.)
4. 9780 fluorescence intensity (a.u.)
5. 54200 fluorescence intensity (a.u.)
6. 24000 fluorescence intensity (a.u.)
7. 15700 fluorescence intensity (a.u.)

* * *

Biological target: OsWOX13 (Oryza sativa, UniProt Q5QMM3 1-267)
Sequence: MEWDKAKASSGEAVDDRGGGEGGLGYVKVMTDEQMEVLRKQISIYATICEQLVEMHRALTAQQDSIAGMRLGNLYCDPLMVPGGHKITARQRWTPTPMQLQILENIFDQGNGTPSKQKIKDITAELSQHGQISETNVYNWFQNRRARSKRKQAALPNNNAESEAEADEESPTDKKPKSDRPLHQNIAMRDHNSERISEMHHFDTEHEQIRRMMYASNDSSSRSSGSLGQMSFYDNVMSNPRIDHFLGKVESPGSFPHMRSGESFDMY
Assay: protein-binding microarray (RPBM); PBS, 2% BSA, 51.3 ng/ul salmon testes DNA, 50 uM zinc acetate, 200 nM TF, 25 C, 1 h; high values mean tight binding
Settings: protein: recombinant; tags: N-terminal polyhistidine and DsRed monomer fusion (pET32a); label: CyDye5-dUTP incorporated in the synthesized complementary strand; 3' TTTTT single-stranded linker to array surface; dsDNA, one strand shown
Over roughly 35,000 sequences, “fluorescence intensity (a.u.)” has its median near 10,000; the highest 2% begin near 52,000. Shown is part of a subset that was picked to be rich in the highest values.
Hi there, I'd appreciate the recorded binding signal for every entry that follows.

• AAGTTTGATTGAAATTGGAACGATGTGACGGAAAAGTTGACGGAGTCACCTAGTGCAG = 35100 fluorescence intensity (a.u.)
• AGTAATAAATTGATTGTATGTTATCTGGTGGTCTGAAACTCGGAGTCACCTAGTGCAG = 57400 fluorescence intensity (a.u.)
• TGTGATGTATTTGATTTATGATGTATTTATTTGTGTGTATCGGAGTCACCTAGTGCAG = 20700 fluorescence intensity (a.u.)
• TGTTAGATGATAAAACATGATTAATATTTTATGTGTGACTCGGAGTCACCTAGTGCAG = 4360 fluorescence intensity (a.u.)
• GCAATTTGATTTGGCCTGTATATTATTATGTGCAGGGTTCCGGAGTCACCTAGTGCAG = 13800 fluorescence intensity (a.u.)

Dear colleague, could you send me binding signal for each of the items below? Thanks.
1. ACTTAATTGGATAGATAAATTTAAGTTATATTTAATATGGCGGAGTCACCTAGTGCAG
2. TTTTATAATTATATAGCACACCCCACTTCACACGCATATCCGGAGTCACCTAGTGCAG
3. CTCAGCCTGATTAATCGGAGATAATGAGTCTACGAATTTGCGGAGTCACCTAGTGCAG

Result:
1. 64900 fluorescence intensity (a.u.)
2. 15300 fluorescence intensity (a.u.)
3. 9790 fluorescence intensity (a.u.)
